Values from the NIST ThermoML archive (doi:10.1021/je100377k)

condition-description: 278.15 K; 101.33 kPa; Liquid
# maps each entry to its mass density
Your answer is read as kg/m3, so omit the unit and give the number.

See these solved cases before continuing.
compound=CCCCCCCC[n+]1cccc(C)c1 obs_value=1347.2
compound="CCCC[n+]1ccccc1.O=S(=O)([N-]S(=O)(=O)C(F)(F)F)C(F)(F)F [1-butylpyridinium bis[(trifluoromethyl)sulfonyl]imide]" obs_value=1467.6
compound="CCCCCC[n+]1ccccc1.O=S(=O)([N-]S(=O)(=O)C(F)(F)F)C(F)(F)F [1-hexylpyridinium bis(trifluromethylsulfonyl)imide]" obs_value=1412.5
compound=CCCC[n+]1ccc(C)cc1.O=S(=O)([N-]S(=O)(=O)C(F)(F)F)C(F)(F)F obs_value=1431
compound=CCCC[n+]1cccc(C)c1.O=S(=O)([N-]S(=O)(=O)C(F)(F)F)C(F)(F)F obs_value=1431.2

Please turn your attention to the following entry.
Q: Would you mind telling me what mass density value was observed for `CCC[n+]1cccc(C)c1.O=S(=O)([N-]S(=O)(=O)C(F)(F)F)C(F)(F)F` ?
Result: 1467.1

----------
# maps each entry to its mass density
condition-description: 363.15 K; 101.33 kPa; Liquid
± gives the expanded uncertainty stated by the source.
I'd appreciate it if you included the unit after the number.

compound="CCCC[n+]1ccccc1.O=S(=O)([N-]S(=O)(=O)C(F)(F)F)C(F)(F)F [1-butylpyridinium bis[(trifluoromethyl)sulfonyl]imide]" obs_value="1389 ± 1.7 kg/m3"

Q: Would you mind telling me what mass density value was observed for `CCC[n+]1cccc(C)c1.O=S(=O)([N-]S(=O)(=O)C(F)(F)F)C(F)(F)F` ?
Result: 1387.7 ± 1.7 kg/m3

Q: Record: CCCCCC[n+]1ccccc1.O=S(=O)([N-]S(=O)(=O)C(F)(F)F)C(F)(F)F [1-hexylpyridinium bis(trifluromethylsulfonyl)imide]
Result: 1336.6 ± 1.6 kg/m3

----------
condition-description: 348.15 K; 101.33 kPa; Liquid
endpoint-label: viscosity (mPa·s)
Your answer is read as mPa·s, so omit the unit and give the number.

See these solved cases before continuing.
compound=CCCC[n+]1ccc(C)cc1.O=S(=O)([N-]S(=O)(=O)C(F)(F)F)C(F)(F)F obs_value=10.72
compound="CCCC[n+]1ccccc1.O=S(=O)([N-]S(=O)(=O)C(F)(F)F)C(F)(F)F [1-butylpyridinium bis[(trifluoromethyl)sulfonyl]imide]" obs_value=11.91
compound=CCCCCCCC[n+]1cccc(C)c1 obs_value=17.16

Q: Would you mind telling me what viscosity value was observed for `CCC[n+]1cccc(C)c1.O=S(=O)([N-]S(=O)(=O)C(F)(F)F)C(F)(F)F` ?
Result: 10.93

Q: Record: CCCCCC[n+]1ccccc1.O=S(=O)([N-]S(=O)(=O)C(F)(F)F)C(F)(F)F [1-hexylpyridinium bis(trifluromethylsulfonyl)imide]
Result: 15.35

----------
condition-description: 358.15 K; 101.33 kPa; Liquid
endpoint-label: viscosity (mPa·s)
Your answer is read as mPa·s, so omit the unit and give the number.

See these solved cases before continuing.
compound=CCCCCCCC[n+]1cccc(C)c1 units=mPa·s obs_value=13.23
compound=CCC[n+]1cccc(C)c1.O=S(=O)([N-]S(=O)(=O)C(F)(F)F)C(F)(F)F units=mPa·s obs_value=8.782
compound="CCCCCC[n+]1ccccc1.O=S(=O)([N-]S(=O)(=O)C(F)(F)F)C(F)(F)F [1-hexylpyridinium bis(trifluromethylsulfonyl)imide]" units=mPa·s obs_value=11.96

Q: Would you mind telling me what viscosity value was observed for CCCC[n+]1ccccc1.O=S(=O)([N-]S(=O)(=O)C(F)(F)F)C(F)(F)F [1-butylpyridinium bis[(trifluoromethyl)sulfonyl]imide] ?
Result: 9.528

Q: Record: `CCCC[n+]1ccc(C)cc1.O=S(=O)([N-]S(=O)(=O)C(F)(F)F)C(F)(F)F`
Result: 8.531
